Consider the following molecules; for each one, report its half-life.
test-method-notes: Half life in mouse liver microsomes
Type: ADME
experimental-setup: liver microsomes
One number for each entry, in min.

Cc1cc2c(C(N)=O)cccc2n1-c1nc2c(c(NCc3ccccc3)n1)CCCC2
44

Items follow; give half-life for each.
1. COc1cccc2c(NCc3ccccc3)nc(-n3c(N)nc4ccccc43)nc12
2. COc1nc2ccccc2n1-c1nc2c(c(NCc3ccccc3)n1)CCCC2
3. Cc1cc2c(C(N)=O)cccc2n1-c1nc2c(c(NCc3ccccc3)n1)CNCC2

Result:
1: 7; 2: 11; 3: 105

====

Quick note: these are IC50 numbers for system: Transitional endoplasmic reticulum ATPase (Homo sapiens)
Numbers only, in nM.

Cc1cc2c(Cl)cccc2n1-c1nc2c(c(NCc3ccccc3)n1)CNCC2
632

Look up IC50 for the entries below, preserving their order.
1. COc1cc2ccccc2n1-c1nc2c(c(NCc3ccccc3)n1)CCCC2
2. COc1nc2ccccc2n1-c1nc2c(c(NCc3ccccc3)n1)CCCC2
3. Nc1nc2ccccc2n1-c1nc2c(c(NCc3ccccc3)n1)CCCC2
4. Cc1cccc2c1cc(C)n2-c1nc2c(c(NCc3ccccc3)n1)CNCC2

Result:
[43, 76, 425, 648]

====

Measured IC50 on Transitional endoplasmic reticulum ATPase (Homo sapiens) follows.
One number for each entry, in µM.

Cc1cc2c(C(N)=O)cccc2n1-c1nc2c(c(NCc3ccccc3)n1)CCCC2
0.5
Cc1cc2ccccc2n1-c1nc2c(c(NCc3ccccc3)n1)CNCC2
15.3
Cc1cc2c(C(N)=O)cccc2n1-c1nc2c(c(NCc3ccccc3)n1)CNCC2
1.79
COc1nc2ccccc2n1-c1nc2c(c(NCc3ccccc3)n1)CCCC2
4.24

Let us examine a further case.
Task: Identify measured IC50 obtained with Transitional endoplasmic reticulum ATPase (Homo sapiens) for `COc1cccc2c(NCc3ccccc3)nc(-n3c(N)nc4ccccc43)nc12` .
Result: 6.14

====

test-method-notes: Mean residence time in mouse at 3 mg/kg, iv
experimental-setup: in vivo
test-readout: MRT (h)
Answers are plain numbers, in h.

Task: Specify MRT for `Cc1cc2c(C(N)=O)cccc2n1-c1nc2c(c(NCc3ccccc3)n1)COCC2` and stop.
Result: 1.17

====

test-method-notes: in vivo
experimental-setup: mouse, po, 25 mg/kg
Description: Cmax in mouse at 25 mg/kg, po
test-readout: Cmax (µM)
One number for each entry, in µM.

Task: Provide only the value of recorded Cmax for `Cc1cc2c(C(N)=O)cccc2n1-c1nc2c(c(NCc3ccccc3)n1)COCC2`
Result: 7.95

====

Tested on: A549
test-method-notes: cells
experimental-setup: Homo sapiens, A549, 72 h
Description: Cytotoxicity against human A549 cells assessed as cell viability after 72 hrs by Celltiter-Glo assay
Classes by IC50: low band (below 6 µM), middle band (6 µM to below 9 µM), high band (9 µM or more)

For orientation, consider the following solved cases.
Cc1cc2c(-c3nnn[nH]3)cccc2n1-c1nc2c(c(NCc3ccccc3)n1)CNCC2
high band
COc1cccc2c(NCc3ccccc3)nc(-n3c(N)nc4ccccc43)nc12
low band
Cc1nc2ccccn2c1-c1nc2c(c(NCc3ccccc3)n1)CCCC2
high band
Cc1cc2ccccc2n1-c1nc2c(c(NCc3ccccc3)n1)CCCC2
middle band
Cc1cc2c(C(N)=O)cccc2n1-c1nc2c(c(NCc3ccccc3)n1)CNCC2
low band
Cc1cc2c(Cl)cccc2n1-c1nc2c(c(NCc3ccccc3)n1)CNCC2
middle band

Task: For this compound, which bin applies? `Cc1cccc2c1cc(C)n2-c1nc2c(c(NCc3ccccc3)n1)CNCC2`
Result: middle band

Task: For the record `Cc1cc2ccccc2n1-c1nc2c(c(NCc3ccccc3)n1)CNCC2` , report the class its IC50 corresponds to.
Result: middle band

====

Assay system Transitional endoplasmic reticulum ATPase (Homo sapiens, UniProt P55072); read-out recorded as IC50.
Numbers only, in nM.

Cc1cc2c(C(=O)NC(C)C)cccc2n1-c1nc2c(c(NCc3ccccc3)n1)CNCC2
4830
COCCOc1cccc2c(NCc3ccccc3)nc(-n3c(C)nc4ccccc43)nc12
304
COCCOc1cccc2c(NCc3ccccc3)nc(-n3c(OC)nc4ccccc43)nc12
370
Cc1[nH]c2ccccc2c1-c1nc2c(c(NCc3ccccc3)n1)CCCC2
149
COc1cccc2c(NCc3ccccc3)nc(-n3c(OC)nc4ccccc43)nc12
145
NCc1cc2ccccc2n1-c1nc2c(c(NCc3ccccc3)n1)CCCC2
153
Cc1nn2ccccc2c1-c1nc2c(c(NCc3ccccc3)n1)CCCC2
367

Task: Give IC50 for this entry on Transitional endoplasmic reticulum ATPase (Homo sapiens, UniProt P55072): `COc1cccc2c(NCc3ccccc3)nc(-n3c(N)nc4ccccc43)nc12`
Sequence (P55072 whole entry): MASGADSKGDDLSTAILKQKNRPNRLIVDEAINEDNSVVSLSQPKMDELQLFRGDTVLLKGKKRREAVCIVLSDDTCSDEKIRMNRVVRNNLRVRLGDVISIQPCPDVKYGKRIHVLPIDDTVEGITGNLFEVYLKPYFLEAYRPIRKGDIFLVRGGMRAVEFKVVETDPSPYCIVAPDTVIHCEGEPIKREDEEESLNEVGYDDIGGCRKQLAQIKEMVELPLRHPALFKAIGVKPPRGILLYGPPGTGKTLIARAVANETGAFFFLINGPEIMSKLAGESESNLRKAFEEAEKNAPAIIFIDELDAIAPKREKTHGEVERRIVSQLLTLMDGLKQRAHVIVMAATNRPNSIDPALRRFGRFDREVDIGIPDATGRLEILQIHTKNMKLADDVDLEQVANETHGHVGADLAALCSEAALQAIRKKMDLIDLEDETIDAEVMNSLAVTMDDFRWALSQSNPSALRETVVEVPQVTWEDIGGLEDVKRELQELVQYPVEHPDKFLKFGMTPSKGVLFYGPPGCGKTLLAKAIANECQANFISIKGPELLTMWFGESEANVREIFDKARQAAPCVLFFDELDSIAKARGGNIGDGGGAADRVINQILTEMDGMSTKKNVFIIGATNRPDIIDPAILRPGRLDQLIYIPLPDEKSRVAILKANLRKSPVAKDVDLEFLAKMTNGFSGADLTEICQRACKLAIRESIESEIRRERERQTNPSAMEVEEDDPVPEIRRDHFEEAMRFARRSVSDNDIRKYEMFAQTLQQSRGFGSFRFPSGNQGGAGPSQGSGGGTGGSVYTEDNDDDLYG
Result: 815

Sourced from ChEMBL document CHEMBL3745611
